- Target or system: T72 phosphorylated Rab8a(GTP), residues 1-181, Q67L (UniProt P61006)
- Sequence (P61006 1-181 Q67L): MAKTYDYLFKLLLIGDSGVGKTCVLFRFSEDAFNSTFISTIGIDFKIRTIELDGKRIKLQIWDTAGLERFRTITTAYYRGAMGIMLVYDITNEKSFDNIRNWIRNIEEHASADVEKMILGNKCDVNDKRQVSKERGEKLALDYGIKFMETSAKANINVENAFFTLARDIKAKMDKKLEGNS
- Experiment summary: ITC; His6-RILPL2 129-165 (400-600 μM) injected into Rab8a or pRab8a 1-181 (40-60 μM); 10 mM Tris-HCl, 300 mM NaCl, 5 mM MgCl2, 20 mM imidazole, 1 mM DTT; triplicate
No end group written: not given here.
Attribute measured: pKd
Answers are plain numbers, as −log10 of the molar value.

In plain terms, His6-NRPRFTLQELRDVLQERNKLKSQLLVVQEELQCYKSG (peptide, UniProt Q969X0 129-165, looked up, Parallel α-helical dimer in the crystal; also called His6-RL2; source: synthetic peptide (Genscript); not shown: His6, N-terminal, kept) [His6-RILPL2 residues 129-165 (phospho-Rab binding domain, minimal RH2 motif)] has a documented pKd of 5.48

Origin of values: paper PMC7139218
